# ASSAY_TEXT: Inhibition of human c-SRC expressed in mouse NIH/3T3 cells assessed as inhibition of cell growth in presence of 0.5% FCS
MEASURED_ENDPOINT: IC50 (nM)
Write the number in nM without appending the unit.

[ask] Given the entry O=C(Cc1ccc(-c2ccc(OCCN3CCOCC3)cc2)cn1)NCc1ccccc1 , report its measured IC50.
[reply] 6.5
